- experimentalTarget: Androgen Receptor (Homo sapiens)
- Construct: endogenous in cells; host or cells: VCaP cells
- Sequence (P10275 whole entry): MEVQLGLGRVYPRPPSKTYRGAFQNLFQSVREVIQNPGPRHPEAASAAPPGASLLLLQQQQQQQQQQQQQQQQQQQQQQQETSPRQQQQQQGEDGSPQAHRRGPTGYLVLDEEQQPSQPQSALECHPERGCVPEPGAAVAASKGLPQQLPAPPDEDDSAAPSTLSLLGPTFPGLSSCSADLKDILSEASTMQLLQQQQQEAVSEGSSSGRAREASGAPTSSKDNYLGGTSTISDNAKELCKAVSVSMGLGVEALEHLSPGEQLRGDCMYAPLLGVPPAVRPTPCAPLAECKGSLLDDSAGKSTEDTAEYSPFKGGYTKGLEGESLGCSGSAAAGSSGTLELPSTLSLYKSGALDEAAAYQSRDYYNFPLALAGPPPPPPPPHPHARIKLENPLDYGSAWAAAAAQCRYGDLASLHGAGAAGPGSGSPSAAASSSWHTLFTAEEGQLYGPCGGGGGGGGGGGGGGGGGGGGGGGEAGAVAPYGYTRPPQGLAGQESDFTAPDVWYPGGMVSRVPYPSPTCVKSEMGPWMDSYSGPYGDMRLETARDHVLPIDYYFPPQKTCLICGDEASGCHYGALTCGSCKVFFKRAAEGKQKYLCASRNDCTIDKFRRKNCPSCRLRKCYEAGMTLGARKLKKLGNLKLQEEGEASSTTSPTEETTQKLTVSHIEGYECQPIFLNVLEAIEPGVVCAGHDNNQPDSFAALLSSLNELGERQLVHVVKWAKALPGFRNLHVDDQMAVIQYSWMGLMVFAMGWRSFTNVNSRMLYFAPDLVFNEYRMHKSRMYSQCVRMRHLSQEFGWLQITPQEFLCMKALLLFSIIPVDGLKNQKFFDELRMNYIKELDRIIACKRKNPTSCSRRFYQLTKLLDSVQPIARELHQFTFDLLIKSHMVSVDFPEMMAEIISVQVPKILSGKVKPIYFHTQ
- measurementDescription: Androgen Receptor ELISA assay (PathScan AR ELISA) in VCaP cells: AR degradation, Dmax and DC50
- Assay type: cell-based
- particulars: VCaP, highest percentage of Androgen Receptor degradation observed, VCaP cells (Table 32); read-out: VCaP Dmax (%)
- Description: 1. Androgen Receptor ELISA Assay. The protocols used with VCaP cells are described below. The androgen receptor ELISA assay was performed using PathScan AR ELISA (Cell Signaling Catalog #12850) according to the following assay steps: […]
observedProperty: Dmax

>>> valueobserved("Cc1ncsc1-c1ccc([C@@H](C)NC(=O)[C@@H]2C[C@@H](O)CN2C(=O)[C@@H](NC(=O)COCCCCNc2ccc(C(=O)N[C@H]3C(C)(C)[C@H](Oc4ccc(C#N)c(Cl)c4)C3(C)C)cc2)C(C)(C)C)cc1")
"26 to 50%"

Task: Could you share which Dmax value was measured for Cc1ncoc1-c1ccc(CNC(=O)[C@@H]2C[C@@H](O)CN2C(=O)[C@@H](NC(=O)COCCCCCOc2ccc(C(=O)NC3C(C)(C)C(Oc4ccc(C#N)c(Cl)c4)C3(C)C)cc2)C(C)(C)C)cc1 (stereo partly shown) ?
Result: > 71%

Task: Could you share which Dmax value was measured for Cc1ncoc1-c1ccc(CNC(=O)[C@@H]2C[C@@H](O)CN2C(=O)[C@@H](NC(=O)CCCOc2ccc(-c3ccc(C(=O)N[C@H]4C(C)(C)[C@H](Oc5ccc(C#N)c(Cl)c5)C4(C)C)cc3)cc2)C(C)(C)C)cc1 ?
Result: > 71%

Task: Could you share which Dmax value was measured for Cc1ncsc1-c1ccc(CNC(=O)[C@@H]2C[C@@H](O)CN2C(=O)[C@@H](NC(=O)COCCCCOc2ccc(C(=O)N[C@H]3C(C)(C)[C@H](Oc4ccc(C#N)c(C(F)(F)F)c4)C3(C)C)cc2)C(C)(C)C)cc1 ?
Result: > 71%
